Every entry's value here was drawn from patent US20250243196A1.

- System Name: Citron kinase (Homo sapiens (Human), UniProt O14578)
- Assay: Radiometric citron kinase assay (Eurofins Cat #16-040KP)
- Assay type: biochemical
- Experimental Setup: biochemical assay described in Example 3; read-out: IC50
Measurement Name: IC50

Exam item: Query for Citron kinase (Homo sapiens (Human), UniProt O14578): what IC50 does the record show for Cc1cc2c(-c3ccc(NC(=O)[C@H](N)CC(C)(C)C)cc3C)cncc2[nH]1 [6-Azaindole Control, reference compound] ?
Marked response: > 3 µM

* * *

Assignment: determine reported IC50 for the given molecules.
- System Name: Citron kinase (Homo sapiens (Human), UniProt O14578)
- Assay: Radiometric citron kinase assay (Eurofins Cat #16-040KP)
- Type: biochemical
- Experimental Setup: mean of at least two independent assays; read-out: Radiometric CitK IC50
Write the value in nM as a bare number.

Exam item: // returns reported IC50 for input CC[C@H](C)[C@H](N)C(=O)Nc1ccc(-c2ccnc3[nH]ccc23)cc1 [Compound F-10]
Marked response: 91.9

Exam item: Please do the same for Cc1cc2c(-c3csc(NC(=O)[C@H](N)CC(C)C)n3)ccnc2[nH]1 [Compound F-116] as well.
Marked response: 368

Exam item: What do you have for Cc1cc(NC(=O)[C@H](N)C(C)(C)C)c(F)cc1-c1ccnc2[nH]ccc12 [Compound F-74] ?
Marked response: 1060

Exam item: Now consider CC(C)C[C@@H](N)C(=O)Nc1ccc(-c2ccnc3[nH]ccc23)c(OC(F)F)c1 [Compound F-82] .
Marked response: 21.5

* * *

- System Name: BIKE (Homo sapiens (Human), UniProt Q9NSY1)
- Sequence (Q9NSY1 whole entry): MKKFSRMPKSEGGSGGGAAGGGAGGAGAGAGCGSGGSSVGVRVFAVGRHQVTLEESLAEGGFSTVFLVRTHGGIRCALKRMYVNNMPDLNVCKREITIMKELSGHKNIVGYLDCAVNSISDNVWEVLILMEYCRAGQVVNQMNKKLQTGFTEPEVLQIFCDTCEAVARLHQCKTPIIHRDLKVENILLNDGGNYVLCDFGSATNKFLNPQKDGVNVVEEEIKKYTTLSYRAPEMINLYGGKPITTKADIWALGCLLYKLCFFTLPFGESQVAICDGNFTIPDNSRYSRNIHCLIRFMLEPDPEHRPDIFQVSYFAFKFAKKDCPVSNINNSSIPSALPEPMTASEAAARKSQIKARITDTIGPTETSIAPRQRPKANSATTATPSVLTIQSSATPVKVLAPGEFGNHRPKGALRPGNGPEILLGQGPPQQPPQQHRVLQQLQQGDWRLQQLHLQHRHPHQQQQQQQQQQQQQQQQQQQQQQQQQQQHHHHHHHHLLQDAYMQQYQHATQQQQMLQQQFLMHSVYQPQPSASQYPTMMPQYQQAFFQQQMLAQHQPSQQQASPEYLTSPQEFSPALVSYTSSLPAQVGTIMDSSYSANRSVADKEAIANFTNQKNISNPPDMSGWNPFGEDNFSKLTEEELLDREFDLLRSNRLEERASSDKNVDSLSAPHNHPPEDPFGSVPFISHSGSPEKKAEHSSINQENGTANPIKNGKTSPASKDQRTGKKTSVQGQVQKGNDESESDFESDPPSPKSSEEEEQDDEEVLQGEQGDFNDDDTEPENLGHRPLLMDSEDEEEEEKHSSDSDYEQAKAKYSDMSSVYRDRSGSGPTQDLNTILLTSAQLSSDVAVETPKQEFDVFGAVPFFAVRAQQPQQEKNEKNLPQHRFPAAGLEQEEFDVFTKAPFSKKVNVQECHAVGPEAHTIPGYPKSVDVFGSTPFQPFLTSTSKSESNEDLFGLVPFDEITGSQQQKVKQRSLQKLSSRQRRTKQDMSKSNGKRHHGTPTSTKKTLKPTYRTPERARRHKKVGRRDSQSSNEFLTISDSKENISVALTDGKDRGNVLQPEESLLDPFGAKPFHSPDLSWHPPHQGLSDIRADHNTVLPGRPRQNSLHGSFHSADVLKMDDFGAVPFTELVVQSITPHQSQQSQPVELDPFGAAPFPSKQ
Measurement Name: pIC50
pIC50 is a log-scale quantity: -log10 of the concentration expressed in molar.

Exam item: For the compound shown here, `Cc1cc2c(-c3ccc(NC(=O)[C@H](N)CC(C)(C)C)cc3C)ccnc2[nH]1` , give the reported pIC50.
Marked response: 6.04

* * *

Kindly supply the reported IC50 values for the records listed here.
- System Name: Citron kinase (Homo sapiens (Human))
- Assay: Radiometric citron kinase assay (Eurofins Cat #16-040KP)
- Type: biochemical
- Experimental Setup: mean of at least two independent assays; read-out: Radiometric CitK IC50
Give the value, in units of nM, as a plain number.

Exam item: # get_value(readout='IC50', item= `CC(C)(C)C[C@@H](N)C(=O)Nc1ccc(-c2ccnc3[nH]c(C(F)(F)F)cc23)nc1` )
Marked response: 418

Exam item: Next record, please: `Cc1cc(NC(=O)[C@H](N)C(C)(C)C)ccc1-c1ccnc2[nH]c(C(F)F)cc12`
Marked response: 68.1

Exam item: And `Cc1cc2c(-c3ccc(NC(=O)[C@H](N)C(C)(C)O)cc3OC(F)F)ccnc2[nH]1` ?
Marked response: 315

Exam item: Repeat with `Cc1cc2c(-c3ccc(NC(=O)[C@H](N)CC(C)C)nc3C)ccnc2[nH]1`
Marked response: 240

* * *

- System Name: Citron kinase (Homo sapiens (Human))
- Assay: Radiometric citron kinase assay (Eurofins Cat #16-040KP)
- Format: biochemical
- Experimental Setup: mean of at least two independent assays; read-out: Radiometric CitK IC50
- Excerpt: In some embodiments, the step of contacting the sample with the compound comprises administering the compound to a subject (e.g., a subject) suffering from cancer. Methods of determining kinase inhibition are well known in the art. For example, kinase activity of an enzyme and the inhibitory capacity of a test compound can be determined by measuring enzyme specific phosphorylation of a substrate. Commercial assays and kits can be employed. […]
Give pIC50 for every item shown.
By convention, pIC50 is the negative base-10 log of a molar concentration.

Exam item: Checklist item: pIC50 tested on Citron kinase (Homo sapiens (Human)), entry `Cc1cnc2[nH]ccc2c1-c1ccc(NC(=O)[C@H](N)C(C)(C)C)cc1` , value?
Marked response: 6.43

Exam item: Try this compound next: `N[C@H](Cc1ccccc1)C(=O)Nc1ccc(-c2ccnc3[nH]ccc23)cc1Cl`
Marked response: 6.25

Exam item: Next up: `Cc1cc(NC(=O)[C@H](N)CC(C)(C)C)ccc1-c1ccnc2[nH]c(C3CC3)cc12`
Marked response: 7.74

Exam item: Subsequent entry: `COc1nc(NC(=O)[C@H](N)CC(C)(C)C)ccc1-c1ccnc2[nH]c(C)cc12`
Marked response: 7.46

Exam item: Consider next the compound `CN(C)CC(=O)Nc1ccc(-c2ccnc3[nH]ccc23)cc1` in the same way.
Marked response: 5.98

Exam item: What do you get for `C[C@@H](N)C(=O)Nc1ccc(-c2ccnc3[nH]ccc23)cc1` ?
Marked response: 6.09

Exam item: Next entry: `Cc1cc2c(-c3ccc(NC(=O)[C@@H](N)[C@H](O)C(C)C)cc3C)ccnc2[nH]1`
Marked response: 7.72

Exam item: Same read-out for `CC(C)(C)[C@@H](N)C(=O)Nc1ccc(-c2ccnc3[nH]c(C4CC4)cc23)cc1` ?
Marked response: 7.45

* * *

I'd be grateful if you could share measured log10 of Kd for these entries.
- System Name: NanoLuc-CITK (full-length human CITK) (Homo sapiens (Human))
- Sequence (O14578 other isoform, or with tags, fused parts or gaps): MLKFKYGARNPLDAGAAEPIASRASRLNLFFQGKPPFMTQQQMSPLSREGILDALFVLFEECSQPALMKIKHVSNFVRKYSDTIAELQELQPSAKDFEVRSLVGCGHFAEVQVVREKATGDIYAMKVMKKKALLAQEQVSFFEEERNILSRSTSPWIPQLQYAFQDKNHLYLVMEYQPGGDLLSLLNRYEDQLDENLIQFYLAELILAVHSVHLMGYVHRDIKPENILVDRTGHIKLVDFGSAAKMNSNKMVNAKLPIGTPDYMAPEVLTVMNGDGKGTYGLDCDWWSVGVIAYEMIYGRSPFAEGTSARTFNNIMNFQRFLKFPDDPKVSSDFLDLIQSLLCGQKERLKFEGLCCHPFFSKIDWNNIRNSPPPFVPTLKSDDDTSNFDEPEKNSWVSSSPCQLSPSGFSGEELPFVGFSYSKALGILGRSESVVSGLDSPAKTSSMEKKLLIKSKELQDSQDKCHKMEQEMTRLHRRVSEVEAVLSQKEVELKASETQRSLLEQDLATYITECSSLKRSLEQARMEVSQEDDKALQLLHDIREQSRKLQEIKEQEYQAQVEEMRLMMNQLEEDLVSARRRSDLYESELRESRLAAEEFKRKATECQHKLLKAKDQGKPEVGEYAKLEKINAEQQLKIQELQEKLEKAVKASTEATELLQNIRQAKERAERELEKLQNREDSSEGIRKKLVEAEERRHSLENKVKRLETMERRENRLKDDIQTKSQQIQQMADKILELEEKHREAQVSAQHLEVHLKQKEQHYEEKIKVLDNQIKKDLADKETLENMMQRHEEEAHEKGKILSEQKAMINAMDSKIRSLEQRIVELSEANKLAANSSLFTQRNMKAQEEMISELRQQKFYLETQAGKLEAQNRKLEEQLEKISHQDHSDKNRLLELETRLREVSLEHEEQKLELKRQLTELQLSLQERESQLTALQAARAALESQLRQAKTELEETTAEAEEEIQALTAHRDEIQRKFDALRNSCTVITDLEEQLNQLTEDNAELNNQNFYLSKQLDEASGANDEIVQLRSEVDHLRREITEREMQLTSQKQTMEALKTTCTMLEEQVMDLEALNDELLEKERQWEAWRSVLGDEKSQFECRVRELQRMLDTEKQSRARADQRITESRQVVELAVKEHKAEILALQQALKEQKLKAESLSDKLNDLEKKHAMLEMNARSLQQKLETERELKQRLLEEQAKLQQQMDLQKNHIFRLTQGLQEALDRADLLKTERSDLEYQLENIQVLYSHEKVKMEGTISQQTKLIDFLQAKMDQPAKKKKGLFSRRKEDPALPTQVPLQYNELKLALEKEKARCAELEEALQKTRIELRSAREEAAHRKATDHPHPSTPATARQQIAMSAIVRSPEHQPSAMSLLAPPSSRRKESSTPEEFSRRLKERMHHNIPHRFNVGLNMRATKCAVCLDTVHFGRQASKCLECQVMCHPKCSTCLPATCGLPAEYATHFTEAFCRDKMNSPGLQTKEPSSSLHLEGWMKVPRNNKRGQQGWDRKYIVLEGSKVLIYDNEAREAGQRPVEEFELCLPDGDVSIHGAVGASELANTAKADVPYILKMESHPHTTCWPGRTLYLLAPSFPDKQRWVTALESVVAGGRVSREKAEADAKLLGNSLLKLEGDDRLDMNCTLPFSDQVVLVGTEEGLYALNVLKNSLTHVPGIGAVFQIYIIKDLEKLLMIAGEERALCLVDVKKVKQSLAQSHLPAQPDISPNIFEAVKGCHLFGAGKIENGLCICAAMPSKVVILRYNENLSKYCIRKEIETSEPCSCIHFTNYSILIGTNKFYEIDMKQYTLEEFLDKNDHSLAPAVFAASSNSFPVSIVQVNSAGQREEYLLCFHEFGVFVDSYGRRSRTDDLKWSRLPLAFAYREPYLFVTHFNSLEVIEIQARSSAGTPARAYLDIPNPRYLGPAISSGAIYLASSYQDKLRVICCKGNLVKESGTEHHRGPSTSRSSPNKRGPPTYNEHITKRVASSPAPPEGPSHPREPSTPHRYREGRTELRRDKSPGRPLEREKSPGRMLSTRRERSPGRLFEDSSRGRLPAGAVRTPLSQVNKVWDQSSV
- Assay: NanoBRET intracellular target engagement assay
- Type: cell-based
# values: log10(Kd), units nM

Exam item: // query log10 of Kd value for entry `Cc1cc2c(-c3ccc(NC(=O)[C@H](N)[C@@H](O)C(C)C)cc3C)ccnc2[nH]1`
Marked response: 0.28

Exam item: Now consider `Cc1cc2c(-c3ccc(NC(=O)[C@H](N)C(C)(C)O)cc3C)ccnc2[nH]1` .
Marked response: 2.03

Exam item: What do you have for `CC(C)C[C@@H](N)C(=O)Nc1ccc(-c2ccnc3[nH]ccc23)cc1` ?
Marked response: 1.11

Exam item: // query: `Cc1cc2c(-c3ccc(NC(=O)[C@H](N)CC(C)(C)C)cc3C)ccnc2[nH]1`
Marked response: 1.00

Exam item: Also, `Cc1cc2c(-c3ccc(NC(=O)[C@@H](N)[C@H](O)C(C)C)cc3C)ccnc2[nH]1` please.
Marked response: 0.63

* * *

- System Name: Citron kinase (Homo sapiens (Human))
- Assay: Radiometric citron kinase assay (Eurofins Cat #16-040KP)
- Assay type: biochemical
- Experimental Setup: mean of at least two independent assays; read-out: Radiometric CitK IC50
- Text: In some embodiments, the step of contacting the sample with the compound comprises administering the compound to a subject (e.g., a subject) suffering from cancer. Methods of determining kinase inhibition are well known in the art. For example, kinase activity of an enzyme and the inhibitory capacity of a test compound can be determined by measuring enzyme specific phosphorylation of a substrate. Commercial assays and kits can be employed. […]
Measurement Name: IC50
Please report the result as a number followed by the unit.

Exam item: Any idea what its IC50 is? The compound is CC(C)(C)[C@@H](N)C(=O)Nc1ccc(-c2ccnc3[nH]c(C(F)(F)F)cc23)cc1 [Compound F-56]
Marked response: 108 nM

Exam item: Try Cc1cc2c(-c3ccc(NC(=O)[C@@H](N)CC(C)(C)C)cc3C)ccnc2[nH]1 [Compound F-158] next.
Marked response: 126 nM

Exam item: Now this one: Cc1c(-c2ccnc3[nH]c(C(F)(F)F)cc23)ccc(NC(=O)[C@H](N)CC(C)(C)C)c1F [Compound F-147]
Marked response: 24 nM

Exam item: Now the compound Cc1cc2c(-c3csc(NC(=O)[C@H](N)C(C)(C)C)n3)ccnc2[nH]1 [Compound F-112]
Marked response: 122 nM

Exam item: Same for CC[C@@H](C)[C@@H](N)C(=O)Nc1ccc(-c2ccnc3[nH]ccc23)cc1 [Compound F-11]
Marked response: 315 nM

Exam item: Also, CC(C)(C)[C@@H](N)C(=O)Nc1ccc(-c2ccnc3[nH]ccc23)cc1F [Compound F-71] please.
Marked response: 64.6 nM

Exam item: Next entry: CCc1c[nH]c2nccc(-c3ccc(NC(=O)[C@H](N)Cc4ccccc4)cc3)c12 [Compound F-136]
Marked response: 1260 nM

Exam item: Record: CC(C)C[C@H](N)C(=O)Nc1ccc(-c2ccnc3[nH]ccc23)cc1 [Compound F-8]
Marked response: 54.1 nM

Exam item: Do the same for CC(C)C[C@@H](NCC(F)(F)F)C(=O)Nc1ccc(-c2ccnc3[nH]ccc23)cc1 [Compound F-47] please
Marked response: 3000 nM

Exam item: Can you check Cc1cc2c(-c3ccc(NC(=O)[C@H](N)CC(C)(C)C)cc3C)ccnc2[nH]1 [Compound F-90] next?
Marked response: 12 nM

Exam item: Likewise for NC(CC(F)(F)F)C(=O)Nc1ccc(-c2ccnc3[nH]ccc23)cc1 (stereo not shown) [Compound F-22] ?
Marked response: 554 nM

Exam item: Same thing, different compound: Cc1cc2c(-c3ccc(NC(=O)C(N)C(O)C(C)(C)C)cc3C)ccnc2[nH]1 (stereo not shown) [Compound F-160]
Marked response: 29 nM

Exam item: Now the compound NC(C(=O)Nc1ccc(-c2ccnc3[nH]ccc23)cc1)C1(C(F)(F)F)CC1 (stereo not shown) [Compound F-23]
Marked response: 172 nM

Exam item: And CCN[C@H](CC(C)C)C(=O)Nc1ccc(-c2ccnc3[nH]ccc23)cc1 [Compound F-43] ?
Marked response: 209 nM

Exam item: Next compound up: Cc1cc(NC(=O)[C@H](N)CC(C)C)c(F)cc1-c1ccnc2[nH]ccc12 [Compound F-73]
Marked response: 694 nM

Exam item: Query N[C@H](Cc1ccccc1)C(=O)Nc1cccc(-c2ccnc3[nH]ccc23)c1 [Compound F-134] next
Marked response: 64.1 nM
